Below, each of the molecules is paired with its reported growth value.
Tested on: RPMI-8226 leukemia
test_protocol: NCI-60 one-dose screen, 48 h (100 = growth as untreated, 0 = no growth, -100 = all killed)
details: 10 µM
About 83,000 compounds went through this panel and 20% of them were active in at least one assay; those are over-represented in the sample as a whole.
Express the result in % but write the number alone.

[
  {
    "molecule": "CCc1ccc2c(c1)N(CCO)C1=C(C(=O)OC1)C2c1ccccc1 (stereo not given)",
    "assay_readout": "growth",
    "unit_of_measure": "%",
    "reported_measurement": 101
  },
  {
    "molecule": "CCCC(F)C(=O)O (stereo not given)",
    "assay_readout": "growth",
    "unit_of_measure": "%",
    "reported_measurement": 98.4
  },
  {
    "molecule": "CCC(=O)N1C/C(=C/c2ccc(Br)cc2)C(=O)/C(=C/c2ccc(Br)cc2)C1",
    "assay_readout": "growth",
    "unit_of_measure": "%",
    "reported_measurement": -28.2
  },
  {
    "molecule": "c1ccc([C@H]2CN3CCSC3=N2)cc1",
    "assay_readout": "growth",
    "unit_of_measure": "%",
    "reported_measurement": 110
  }
]

Record O=C(Nc1cccc(-n2cc(-c3ccncc3)c(-c3ccc(O)c(Cl)c3)n2)c1)c1ccc(N2CCOCC2)c(C(F)(F)F)c1 . Reported growth: -18
